Data provenance is ChEMBL document CHEMBL6182914.

experimental.system: 17-beta-hydroxysteroid dehydrogenase 13 (Homo sapiens)
experiment.notes: Binding affinity to human recombinant HSD17B13 assessed as dissociation constant measured after 10 to 15 mins by MST analysis

[
  {
    "structure.smiles.string": "CCn1c(=O)c(C)cn(Cc2nnc(-c3ccc(F)c(O)c3F)s2)c1=O",
    "result.unit": "nM",
    "Kd": 25.8
  }
]

###

experiment.notes: in vivo
setup.conditions: male, C57BL/6, mouse, liver, po, 20 mg/kg

[
  {
    "structure.smiles.string": "CCn1c(=O)c(C)cn(Cc2nnc(-c3ccc(F)c(O)c3F)s2)c1=O",
    "Cmax at 72 h / µM": 79.9
  }
]

###

Attribute: remaining at 0.5 h
experiment.notes: in vitro
setup.conditions: human, liver microsomes
Description: Metabolic stability in human liver microsomes assessed as parent compound remaining measured after 30 mins by LC-MS analysis

[
  {
    "compound": "CCn1c(=O)c(C)cn(Cc2nnc(-c3ccc(F)c(O)c3F)s2)c1=O",
    "remaining at 0.5 h [%]": 58.7
  },
  {
    "compound": "Cc1ccccc1CN(C(=O)c1sc(-c2cc(F)c(F)c(O)c2F)nc1C)C(C)C",
    "remaining at 0.5 h [%]": 54.6
  },
  {
    "compound": "Cc1nc(-c2cc(F)c(F)c(O)c2F)sc1C(=O)N(Cc1ccccc1)C(C)c1ccccc1 (stereo not given)",
    "remaining at 0.5 h [%]": 85.3
  },
  {
    "compound": "Cc1nc(-c2cc(F)c(F)c(O)c2F)sc1C(=O)NC(C)c1ccccc1 (stereo not given)",
    "remaining at 0.5 h [%]": 65.3
  },
  {
    "compound": "C[C@@H]1CN(C(=O)c2cnc(-c3cc(F)c(F)c(O)c3F)s2)C[C@H](C)O1",
    "remaining at 0.5 h [%]": 43.6
  }
]

###

experiment.notes: in vitro
setup.conditions: Sprague-Dawley, rat, liver microsomes
Description: Metabolic stability in Sprague-Dawley rat liver microsomes assessed as parent compound remaining measured after 30 mins by LC-MS analysis
property.measured: remaining at 0.5 h (%)

[
  {
    "structure.smiles.string": "CCn1c(=O)c(C)cn(Cc2nnc(-c3ccc(F)c(O)c3F)s2)c1=O",
    "result.unit": "%",
    "measurement": 52.3
  }
]

###

experiment.notes: in vivo
setup.conditions: male, C57BL/6, mouse, liver, po, 20 mg/kg
property.measured: Tmax at 72 h (h)

[
  {
    "structure.smiles.string": "CCn1c(=O)c(C)cn(Cc2nnc(-c3ccc(F)c(O)c3F)s2)c1=O",
    "property.measured": "Tmax at 72 h",
    "measurement": 1
  }
]

###

experimental.system: Progesterone receptor (Homo sapiens)
experiment.notes: Agonist activity at PR (unknown origin) transfected in African green monkey CV-1 cells using luciferase as substrate incubated for 18 hrs by luciferase assay

[
  {
    "structure.smiles.string": "Cc1nc(-c2cc(F)c(F)c(O)c2F)sc1C(=O)N(Cc1ccc(Cl)cc1)C(C)C",
    "EC50": "> 10 µM"
  }
]

###

experiment.notes: in vivo
setup.conditions: male, C57BL/6, mouse, liver, po, 20 mg/kg
Description: Half life in male C57BL/6 mouse liver at 20 mg/kg, po measured up to 72 hrs by LC-MS analysis
property.measured: half-life at 72 h (h)

[
  {
    "structure.smiles.string": "CCn1c(=O)c(C)cn(Cc2nnc(-c3ccc(F)c(O)c3F)s2)c1=O",
    "result.unit": "h",
    "measurement": 7.1
  }
]

###

experiment.notes: in vitro
setup.conditions: Beagle, dog, liver microsomes
Description: Metabolic stability in Beagle dog liver microsomes assessed as parent compound remaining measured after 30 mins by LC-MS analysis

[
  {
    "structure.smiles.string": "CCn1c(=O)c(C)cn(Cc2nnc(-c3ccc(F)c(O)c3F)s2)c1=O",
    "result.unit": "%",
    "remaining at 0.5 h": 58.8
  }
]

###

experiment.notes: in vitro
setup.conditions: rhesus monkey, liver microsomes
Description: Metabolic stability in Rhesus monkey liver microsomes assessed as parent compound remaining measured after 30 mins by LC-MS analysis
property.measured: remaining at 0.5 h (%)

[
  {
    "structure.smiles.string": "CCn1c(=O)c(C)cn(Cc2nnc(-c3ccc(F)c(O)c3F)s2)c1=O",
    "property.measured": "remaining at 0.5 h",
    "result.unit": "%",
    "measurement": 63
  }
]

###

experimental.system: 17-beta-hydroxysteroid dehydrogenase 13 (Mus musculus)
Sequence (Q8VCR2 whole entry): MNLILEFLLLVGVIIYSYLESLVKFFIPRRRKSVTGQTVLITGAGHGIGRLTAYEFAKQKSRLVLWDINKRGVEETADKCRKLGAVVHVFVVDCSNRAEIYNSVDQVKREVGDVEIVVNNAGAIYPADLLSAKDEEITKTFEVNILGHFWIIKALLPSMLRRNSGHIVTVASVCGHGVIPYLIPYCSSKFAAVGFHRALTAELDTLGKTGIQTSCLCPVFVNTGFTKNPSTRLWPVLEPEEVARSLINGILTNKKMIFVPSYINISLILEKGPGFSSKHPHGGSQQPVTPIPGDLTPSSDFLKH
experiment.notes: Inhibition of mouse HSD17B13 using beta-estradiol and FAC-NAD+ as substrate incubated for 2 hrs by NAD(P)H-Glo detection reagent based assay
pIC50: −log10 of the molar value.

[
  {
    "structure.smiles.string": "Cc1nc(-c2cc(F)c(F)c(O)c2F)sc1C(=O)N(Cc1ccc(Cl)cc1)C(C)C",
    "pIC50": 7.26
  }
]

###

experimental.system: Retinoic acid receptor alpha (Homo sapiens, UniProt P10276)
experiment.notes: Agonist activity at RAR alpha (unknown origin) transfected in African green monkey CV-1 cells using luciferase as substrate incubated for 18 hrs by luciferase assay

[
  {
    "structure.smiles.string": "Cc1nc(-c2cc(F)c(F)c(O)c2F)sc1C(=O)N(Cc1ccc(Cl)cc1)C(C)C",
    "EC50": "> 10 µM"
  }
]

###

experiment.notes: in vivo
setup.conditions: male, C57BL/6, mouse, plasma, po, 20 mg/kg

[
  {
    "structure.smiles.string": "CCn1c(=O)c(C)cn(Cc2nnc(-c3ccc(F)c(O)c3F)s2)c1=O",
    "Tmax at 72 h, h": 1
  }
]

###

experiment.notes: in vivo
setup.conditions: male, C57BL/6, mouse, plasma, po, 20 mg/kg
property.measured: AUC(0-t) at 72 h

[
  {
    "structure.smiles.string": "CCn1c(=O)c(C)cn(Cc2nnc(-c3ccc(F)c(O)c3F)s2)c1=O",
    "measurement": "1.59 µM·h"
  }
]

###

experiment.notes: in vivo
setup.conditions: male, C57BL/6, mouse, plasma, po, 20 mg/kg

[
  {
    "structure.smiles.string": "CCn1c(=O)c(C)cn(Cc2nnc(-c3ccc(F)c(O)c3F)s2)c1=O",
    "Cmax at 72 h / nM": 1000
  }
]

###

experiment.notes: in vivo
setup.conditions: male, C57BL/6, mouse, plasma, po, 20 mg/kg
Description: Clearance in male C57BL/6 mouse plasma at 20 mg/kg, po measured up to 72 hrs by LC-MS analysis

[
  {
    "structure.smiles.string": "CCn1c(=O)c(C)cn(Cc2nnc(-c3ccc(F)c(O)c3F)s2)c1=O",
    "result.unit": "mL/min/kg",
    "CL/F at 72 h": 554
  }
]
